- System: UniProt P30561
- Sequence (P30561 whole entry P471L/N533S/M589L, form open): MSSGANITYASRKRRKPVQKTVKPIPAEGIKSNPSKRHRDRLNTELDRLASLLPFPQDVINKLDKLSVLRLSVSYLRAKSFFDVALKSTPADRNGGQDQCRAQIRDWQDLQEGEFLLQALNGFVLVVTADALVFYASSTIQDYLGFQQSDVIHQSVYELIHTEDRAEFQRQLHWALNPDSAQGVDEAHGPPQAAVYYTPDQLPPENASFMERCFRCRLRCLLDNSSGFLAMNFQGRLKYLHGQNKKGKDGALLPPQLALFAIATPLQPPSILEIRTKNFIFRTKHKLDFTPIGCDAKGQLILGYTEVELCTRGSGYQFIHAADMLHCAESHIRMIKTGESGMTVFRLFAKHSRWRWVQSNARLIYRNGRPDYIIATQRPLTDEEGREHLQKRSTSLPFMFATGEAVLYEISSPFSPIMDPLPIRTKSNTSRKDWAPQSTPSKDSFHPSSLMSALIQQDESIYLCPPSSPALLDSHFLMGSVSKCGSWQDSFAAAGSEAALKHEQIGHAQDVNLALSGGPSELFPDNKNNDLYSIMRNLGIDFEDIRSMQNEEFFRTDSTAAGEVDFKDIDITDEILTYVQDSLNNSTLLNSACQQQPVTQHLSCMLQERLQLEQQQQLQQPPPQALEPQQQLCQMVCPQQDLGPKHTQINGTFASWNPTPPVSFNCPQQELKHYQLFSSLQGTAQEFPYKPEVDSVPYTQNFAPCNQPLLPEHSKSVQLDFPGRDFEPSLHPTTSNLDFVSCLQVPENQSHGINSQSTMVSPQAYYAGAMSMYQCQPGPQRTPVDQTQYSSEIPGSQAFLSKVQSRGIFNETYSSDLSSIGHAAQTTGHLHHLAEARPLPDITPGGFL
- Experiment description: In vitro assay 3: antagonism in mouse cell line (AHR transactivation, firefly luciferase reporter, kynurenic acid prestimulated)
- Assay type: cell-based
- Run parameters: mouse Hepa 1c1c7 cells, 200 μM kynurenic acid, 20 hours, read-out: AHR Antagonism Mouse IC50
IC50 less than 10 nM is Met; IC50 greater than or equal to 10 nM is Not met.

Examples from the recorded data:
Exercise: API: query returns whether the compound falls strictly under 10 nM in IC50. Query: N#Cc1ccc(-c2nc3c4cccc(C(F)(F)F)c4nc(N[C@@H]4CCCCNC4=O)n3n2)cc1
Solution: Met

Exercise: API: query returns whether the compound falls strictly under 10 nM in IC50. Query: Cc1ncc(-c2nc3c4ccccc4nc(N[C@@H]4CCCCNC4=O)n3n2)cc1F
Solution: Met

Exercise: API: query returns whether the compound falls strictly under 10 nM in IC50. Query: O=C1NCCCC[C@H]1Nc1nc2ccccc2c2nc(-c3ccnc(F)c3)nn12
Solution: Not met

Exercise: API: query returns whether the compound falls strictly under 10 nM in IC50. Query: COc1ccc(-c2nc3c4c(C)cccc4nc(NC4CNCCNC4=O)n3n2)cc1 (centres unmarked)
Solution: Not met

Exercise: API: query returns whether the compound falls strictly under 10 nM in IC50. Query: COc1cccc(-c2nc3c4ccccc4nc(N[C@H](C)C(=O)NC(C)C)n3n2)c1
Solution: Met

Exercise: API: query returns whether the compound falls strictly under 10 nM in IC50. Query: COc1cscc1-c1nc2c3ccccc3nc(N[C@H]3CCCCNC3=O)n2n1
Solution: Not met

More entries:
Exercise: API: query returns whether the compound falls strictly under 10 nM in IC50. Query: Cc1c(-c2nc3c4cccc(C(F)(F)F)c4nc(N[C@@H]4CCCCNC4=O)n3n2)cnn1C
Solution: Met

Exercise: API: query returns whether the compound falls strictly under 10 nM in IC50. Query: Cc1ccccc1-c1nc2c3ccccc3nc(NC3CNCCNC3=O)n2n1 (centres unmarked) [Example 45]
Solution: Not met
